Target: HCMV (wild) polymerase (Human cytomegalovirus, UniProt P08546)
Sequence (P08546 whole entry): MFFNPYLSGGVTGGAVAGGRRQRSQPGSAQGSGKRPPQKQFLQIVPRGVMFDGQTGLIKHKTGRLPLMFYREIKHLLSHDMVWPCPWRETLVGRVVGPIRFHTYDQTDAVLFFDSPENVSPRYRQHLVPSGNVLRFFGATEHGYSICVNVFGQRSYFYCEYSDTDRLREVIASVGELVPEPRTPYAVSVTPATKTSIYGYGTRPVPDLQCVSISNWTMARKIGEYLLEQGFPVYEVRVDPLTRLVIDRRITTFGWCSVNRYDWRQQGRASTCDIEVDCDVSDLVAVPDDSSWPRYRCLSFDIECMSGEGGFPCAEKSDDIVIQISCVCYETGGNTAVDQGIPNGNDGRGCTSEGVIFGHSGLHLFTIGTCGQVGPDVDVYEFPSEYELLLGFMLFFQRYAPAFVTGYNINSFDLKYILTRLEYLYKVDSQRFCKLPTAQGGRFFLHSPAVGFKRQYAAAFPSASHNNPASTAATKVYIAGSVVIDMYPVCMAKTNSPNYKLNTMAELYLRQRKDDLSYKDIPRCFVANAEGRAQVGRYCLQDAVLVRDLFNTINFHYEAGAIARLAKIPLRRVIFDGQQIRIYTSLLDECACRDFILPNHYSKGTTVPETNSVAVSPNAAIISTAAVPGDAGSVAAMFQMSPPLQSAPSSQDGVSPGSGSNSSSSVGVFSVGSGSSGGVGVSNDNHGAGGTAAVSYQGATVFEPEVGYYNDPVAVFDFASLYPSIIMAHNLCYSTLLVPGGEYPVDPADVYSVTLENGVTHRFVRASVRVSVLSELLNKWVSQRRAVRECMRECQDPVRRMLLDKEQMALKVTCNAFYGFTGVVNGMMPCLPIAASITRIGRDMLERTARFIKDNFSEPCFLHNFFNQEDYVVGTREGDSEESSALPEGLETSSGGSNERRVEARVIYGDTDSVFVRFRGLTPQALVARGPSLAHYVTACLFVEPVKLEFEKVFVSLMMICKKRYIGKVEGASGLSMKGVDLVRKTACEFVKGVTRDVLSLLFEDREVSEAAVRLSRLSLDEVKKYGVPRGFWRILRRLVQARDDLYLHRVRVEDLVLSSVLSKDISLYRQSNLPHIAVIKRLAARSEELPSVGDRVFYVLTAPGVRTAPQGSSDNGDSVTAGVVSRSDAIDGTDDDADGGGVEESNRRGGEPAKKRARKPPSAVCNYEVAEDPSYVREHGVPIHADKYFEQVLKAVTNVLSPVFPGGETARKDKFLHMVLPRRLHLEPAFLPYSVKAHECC
Assay: In vitro polymerase assay, wild HCMV polymerase
Type: biochemical
Details: Table 3
property-name: IC50 (µM)

structure-notation | quantitative-readout
Cn1cc(C(=O)NCc2ccc(Cl)cc2)c(=O)c2cc(/C=C\CO)cc(F)c21 | 4.6

* * *

System: HSV-1 KOS-M1 (V823A)
Assay: Plaque reduction assay, 4-oxo-DHQ resistant HSV-1 KOS-M1
Type: cell-based
Details: Table 2, mutant V823A; read-out: IC50 (uM), HSV-1 Kos-M1

structure-notation | IC50
Cn1cc(C(=O)NCc2ccc(Cl)cc2)c(=O)c2cc(/C=C\CO)cc(F)c21 | > 20 µM

* * *

Tested on: HSV-2 186
Assay: Plaque reduction assay, HSV-2 186
Assay type: cell-based
Details: Human alphaherpesvirus 2; Table 1, plaque reduction, Vero cells

compound | measured-on | IC50
Nc1nc2c(ncn2COCCO)c(=O)[nH]1 [ACV, Acyclovir, reference compound] | HSV-2 186 | > 10 µM

* * *

Tested on: HSV-1 KOS
Test: Plaque reduction assay, HSV-1 KOS
Type: cell-based
Details: Table 5, wild type strain; read-out: Plaque Reduction Assay - IC50 (μM) HSV-1 KOS

compound | relation-operator | IC50 / µM
Cn1cc(C(=S)NCc2ccc(Cl)cc2)c(=O)c2cc(C#CCO)ccc21 [Compound 13] | = | 5.5
CN(Cc1cc2c(=O)c(C(=O)NCc3ccc(Cl)cc3)cn(C)c2s1)CC(O)c1ccccc1 (racemic) [Compound 8] | = | 5.1
Nc1ccn([C@@H]2O[C@H](CO)[C@@H](O)[C@@H]2O)c(=O)n1 [AraC, Arabinosylcytidine, reference compound] | = | 0.2
Cn1cc(C(=O)NCc2ccc(Br)cc2)c(=O)c2cc(CN3CCOCC3)sc21 [Compound 10] | = | 15.8
Cc1nc2c(cc1C#CCO)c(=O)c(C(=O)NCc1ccc(Cl)cc1)cn2C [Compound 15] | > | 50
O=c1[nH]c(=O)n([C@H]2C[C@H](O)[C@@H](CO)O2)cc1I [Iudr, Iododeoxyuridine, reference compound] | = | 1.1
O=C(NCc1ccc(Cl)cc1)c1cn(C2COC2)c2ccc(CN3CCOCC3)cc2c1=O [Compound 11] | = | 3.1
Cn1nc(C(=O)NCc2ccc(Cl)cc2)c(=O)c2cc(C#CCO)ccc21 [Compound 14] | = | 28.4
Cn1cc(C(=O)NCc2ccc(Cl)cc2)c(=O)c2cc(CN3CCOCC3)cc(C#CCO)c21 [Compound 12] | = | 1.3
Cn1cc(C(=O)NCc2ccc(Cl)cc2)c(=O)c2cc(CN3CCOCC3)ccc21 [Compound 2] | = | 3.3
O=C(NCc1ccc(Cl)cc1)c1cnc2c(F)cccc2c1O [Compound 6] | = | 24.6
O=C(NCc1ccc(Cl)cc1)c1cn2c(CO)cc3cc(CN4CCOCC4)cc(c1=O)c32 [Compound 9] | = | 1.9

* * *

System: HSV-2 MS
Experiment: Plaque reduction assay, HSV-2 MS
Type: cell-based
Conditions: Table 5, wild type strain; read-out: Plaque Reduction Assay - IC50 (μM) HSV-2 MS
Procedure: Antiviral activity of compounds against herpesviruses such as HSV-1, HSV-2, or HCMV can be measured using plaque reduction assays. […] Plaques can be observed and counted microscopically or by staining the cells with 0.1% crystal violet in 20% ethanol. […] The IC50 values are calculated by plotting the per cent inhibition vs. concentration of compound using EXCEL software for linear regression. […]
property-name: IC50 (µM)

molecule | quantitative-readout
O=C(NCc1ccc(Cl)cc1)c1cn(C2COC2)c2ccc(CN3CCOCC3)cc2c1=O | 3
O=c1[nH]c(=O)n([C@H]2C[C@H](O)[C@@H](CO)O2)cc1I [Iudr, Iododeoxyuridine, reference compound] | 5
Cn1cc(C(=O)NCc2ccc(Cl)cc2)c(=O)c2cc(CN3CCOCC3)cc(C#CCO)c21 | 0.4
O=C(NCc1ccc(Cl)cc1)c1cn2c3c(cc(CN4CCOCC4)cc3c1=O)OCC2 | 2.1
O=C(NCc1ccc(Cl)cc1)c1cnc2c(F)cccc2c1O | 28.8
O=C(NCc1ccc(Cl)cc1)c1cn2c(CO)cc3cc(CN4CCOCC4)cc(c1=O)c32 | 0.9
Cc1cn([C@@H]2O[C@H](CO)[C@@H](O)[C@@H]2O)c(=O)[nH]c1=O [AraT, Arabinosylthymine, reference compound] | 6.6
Cn1cc(C(=O)NCc2ccc(Br)cc2)c(=O)c2cc(CN3CCOCC3)sc21 | 29.2
Cn1cc(C(=O)NCc2ccc(Cl)cc2)c(=O)c2cc(CN3CCOCC3)ccc21 | 1.3
O=C(NCc1ccc(Cl)cc1)c1cnc2ccc(CCCO)cc2c1O | 8.8
Cn1nc(C(=O)NCc2ccc(Cl)cc2)c(=O)c2cc(C#CCO)ccc21 | 1.6
Cn1cc(C(=S)NCc2ccc(Cl)cc2)c(=O)c2cc(C#CCO)ccc21 | 5.3
Cc1nc2c(cc1C#CCO)c(=O)c(C(=O)NCc1ccc(Cl)cc1)cn2C | 5.9
Nc1ccn([C@@H]2O[C@H](CO)[C@@H](O)[C@@H]2O)c(=O)n1 [AraC, Arabinosylcytidine, reference compound] | 0.2
Cn1cc(C(=O)NCc2ccc(Cl)cc2)c(=O)c2cc(CN3CCOCC3)sc21 | 0.8
CN(Cc1cc2c(=O)c(C(=O)NCc3ccc(Cl)cc3)cn(C)c2s1)CC(O)c1ccccc1 (racemic) | 2.3

* * *

Tested on: HSV-2 186-M1 (V828A)
Test: Plaque reduction assay, 4-oxo-DHQ resistant HSV-2 186-M1
Assay type: cell-based
Conditions: Table 2, mutant V828A

structure-notation | measured-on | IC50
Cn1cc(C(=O)NCc2ccc(Cl)cc2)c(=O)c2cc(/C=C\CO)cc(F)c21 | HSV-2 186-M1 (V828A) | > 20 µM

* * *

Collected IC50 values appear next to each entry.
System: HSV-2 186
Test: Plaque reduction assay, HSV-2 186
Assay type: cell-based
Details: Table 1, plaque reduction, Vero cells
Description: Antiviral activity of compounds against herpesviruses such as HSV-1, HSV-2, or HCMV can be measured using plaque reduction assays. […] Plaques can be observed and counted microscopically or by staining the cells with 0.1% crystal violet in 20% ethanol. […] The IC50 values are calculated by plotting the per cent inhibition vs. concentration of compound using EXCEL software for linear regression. […]
property-name: IC50 (µM)

compound | quantitative-readout
Cn1cc(C(=O)NCc2ccc(Cl)cc2)c(=O)c2cc(CN3CCOCC3)ccc21 [Compound 2] | 2.3
Cn1cc(C(=O)NCc2ccc(Cl)cc2)c(=O)c2cc(/C=C\CO)cc(F)c21 [Compound 1] | 2
O=C(NCc1ccc(Cl)cc1)c1cn2c3c(cc(CN4CCOCC4)cc3c1=O)OCC2 [Compound 4] | 2.3
Cn1cc(C(=O)NCc2ccc(Cl)cc2)c(=O)c2cc(CN3CCOCC3)sc21 [Compound 3] | 3.2
O=C(NCc1ccc(Cl)cc1)c1cn(N2CCOCC2)c2ccc(CN3CCOCC3)cc2c1=O [Compound 5] | 4.2

* * *

System: HSV-1 KOS
Test: Plaque reduction assay, HSV-1 KOS
Format: cell-based
Details: Table 5, wild type strain; read-out: Plaque Reduction Assay - IC50 (μM) HSV-1 KOS
Collected IC50 values appear next to each entry.

molecule | IC50 [µM]
Cc1cn([C@@H]2O[C@H](CO)[C@@H](O)[C@@H]2O)c(=O)[nH]c1=O [AraT, Arabinosylthymine, reference compound] | 11.6
Cn1cc(C(=O)NCc2ccc(Cl)cc2)c(=O)c2cc(CN3CCOCC3)sc21 | 4
O=C(NCc1ccc(Cl)cc1)c1cnc2ccc(CCCO)cc2c1O | 6.5
O=C(NCc1ccc(Cl)cc1)c1cn2c3c(cc(CN4CCOCC4)cc3c1=O)OCC2 | 4.2

* * *

Test system: HCMV AD169
Test: Plaque reduction assay, HCMV AD169
Assay type: cell-based
Conditions: Human betaherpesvirus 5, AD169; Table 5, wild type strain; read-out: Plaque Reduction Assay - IC50 (μM) HCMV AD169

compound | IC50 [µM]
Nc1nc(O)c2ncn(COC(CO)CO)c2n1 [Ganciclovir, reference compound] | 0.8
O=C(O)P(=O)(O)O [PFA, Foscarnet, reference compound] | 38
Nc1ccn(C[C@@H](CO)OCP(=O)(O)O)c(=O)n1 [Cidofovir, reference compound] | 0.4

* * *

Test system: HSV-2 MS-M1 (V826A)
Test: Plaque reduction assay, 4-oxo-DHQ resistant HSV-2 MS-M1
Assay type: cell-based
Conditions: Table 2, mutant V826A; read-out: IC50 (uM), HSV-2 MS-M1
property-name: IC50

structure-notation | property-name | result
Cn1cc(C(=O)NCc2ccc(Cl)cc2)c(=O)c2cc(/C=C\CO)cc(F)c21 | IC50 | > 20 µM

* * *

System: HSV-2 MS-M1 (V826A)
Assay: Plaque reduction assay, 4-oxo-DHQ resistant HSV-2 MS-M1
Type: cell-based
Conditions: Human alphaherpesvirus 2, read-out: Plaque Reduction Assay - IC50 (μM) HSV-2 MS-M1

compound | IC50
Nc1nc2c(ncn2COCCO)c(=O)[nH]1 [ACV, Acyclovir, reference compound] | 2.8 µM
